Documented viability at 24 h, 5 µM across a set of compounds
assay: Cytotoxicity against mouse HT22 cells as cell viability at 5 uM after 24 hrs by MTT assay relative to control; assay type: cell-based, HT-22; conditions: read-out: Activity
Field format: number, assumed %, no unit text.

{"COMPOUND": "CCc1nnc(SCC(=O)Nc2ccc(OC)c(OC)c2)c2cc3sc(Cl)cc3n12", "viability at 24 h, 5 µM, %": 94}
{"COMPOUND": "COc1ccc(NC(=O)Cn2nc(C)n3c(cc4sc(C)cc43)c2=O)cc1OC", "viability at 24 h, 5 µM, %": 97}
{"COMPOUND": "CCc1nnc(SCC(=O)N2CCN(c3ccccc3)CC2)c2cc3sccc3n12", "viability at 24 h, 5 µM, %": 68}
{"COMPOUND": "Cc1nnc(SCC(=O)N2CCN(c3ccccc3)CC2)c2cc3sccc3n12", "viability at 24 h, 5 µM, %": 98}

Exam item: Find the recorded viability at 24 h, 5 µM belonging to CCc1nnc(SCC(=O)NCc2ccccc2)c2cc3sc(C)cc3n12 and report it.
Marked response: 29

Exam item: Find the recorded viability at 24 h, 5 µM belonging to O=S(=O)(c1ccccc1Cl)N1CCCC1c1cccs1 (centres undefined) and report it.
Marked response: 114

Exam item: Find the recorded viability at 24 h, 5 µM belonging to Cc1nnc(SCC(=O)N(C)c2ccccc2)c2cc3sccc3n12 and report it.
Marked response: 99

Exam item: Find the recorded viability at 24 h, 5 µM belonging to Cn1c(=O)oc2cc(NS(=O)(=O)Cc3ccco3)ccc21 and report it.
Marked response: 103

Exam item: Find the recorded viability at 24 h, 5 µM belonging to COc1ccccc1C1NC(=S)NC(C)=C1C(=O)OCc1ccccc1 (centres undefined) and report it.
Marked response: 88

Exam item: Find the recorded viability at 24 h, 5 µM belonging to CCc1nnc(SCC(=O)N2CCN(c3ccccc3)CC2)c2cc3sc(C)cc3n12 and report it.
Marked response: 99

Exam item: Find the recorded viability at 24 h, 5 µM belonging to CCc1nn(CC(=O)N(C)C)c(=O)c2cc3sccc3n12 and report it.
Marked response: 98

Exam item: Find the recorded viability at 24 h, 5 µM belonging to COC(=O)CN(c1ccc(C(C)C)cc1)S(=O)(=O)c1ccc(C)cc1 and report it.
Marked response: 92

Exam item: Find the recorded viability at 24 h, 5 µM belonging to CCN(Cc1ccccc1)C(=O)Cn1nc(C)n2c(cc3sc(C)cc32)c1=O and report it.
Marked response: 90

Exam item: Find the recorded viability at 24 h, 5 µM belonging to Cc1cc2c(cc3c(=O)n(CC(=O)N(C)C)nc(C)n32)s1 and report it.
Marked response: 96

Exam item: Find the recorded viability at 24 h, 5 µM belonging to CCc1nn(CC(=O)N(CC)Cc2ccccc2)c(=O)c2cc3sccc3n12 and report it.
Marked response: 100

Exam item: Find the recorded viability at 24 h, 5 µM belonging to CCc1nnc(SCC(=O)Nc2ccccc2)c2cc3sc(C)cc3n12 and report it.
Marked response: 92

Exam item: Find the recorded viability at 24 h, 5 µM belonging to CCc1nnc(SCC(=O)Nc2ccccc2)c2cc3sccc3n12 and report it.
Marked response: 91

Exam item: Find the recorded viability at 24 h, 5 µM belonging to CCc1nnc(SCC(=O)N2CCN(c3ccccc3)CC2)c2cc3sc(Cl)cc3n12 and report it.
Marked response: 99

Exam item: Find the recorded viability at 24 h, 5 µM belonging to CCc1nn(CC(=O)N(C)c2ccccc2)c(=O)c2cc3sccc3n12 and report it.
Marked response: 93

Exam item: Find the recorded viability at 24 h, 5 µM belonging to Cc1cc2c(cc3c(=O)n(CC(=O)N(C)c4ccccc4)nc(C)n32)s1 and report it.
Marked response: 100

Exam item: Find the recorded viability at 24 h, 5 µM belonging to O=C(Cc1coc2ccc3ccccc3c12)NCc1ccco1 and report it.
Marked response: 96

Exam item: Find the recorded viability at 24 h, 5 µM belonging to Cc1cc2c(cc3c(SCC(=O)NCc4ccccc4)nnc(C)n32)s1 and report it.
Marked response: 61

Exam item: Find the recorded viability at 24 h, 5 µM belonging to CCc1nnc(SCC(=O)N(C)c2ccccc2)c2cc3sccc3n12 and report it.
Marked response: 97

Exam item: Find the recorded viability at 24 h, 5 µM belonging to C=CCN1C(=O)CN=C(c2ccccc2)c2c1sc(C)c2C and report it.
Marked response: 93

Exam item: Find the recorded viability at 24 h, 5 µM belonging to Cc1cc2c(cc3c(SCC(=O)Nc4ccccc4)nnc(C)n32)s1 and report it.
Marked response: 88

---

assay: Stability in human plasma assessed as parent compound remaining at 10 uM after 30 mins by LC-MS/MS analysis; assay type: ADME, cell-free; conditions: read-out: Stability
METRIC NAME: remaining at 0.5 h, 10 µM (%)
Field format: number, assumed %, no unit text.

Exam item: Find the recorded remaining at 0.5 h, 10 µM belonging to CCc1nnc(SCC(=O)N(C)c2ccccc2)c2cc3sc(C)cc3n12 and report it.
Marked response: 99.3

---

biological target: Translocator protein (Mus musculus) (UniProt P50637); assay: Inhibition of TSPO in mouse HT22 cells assessed as reduction in amyloid beta (1 to 42) (unknown origin) induced mitochondrial permeability transition pore formation by measuring increase in green to red fluorescence ratio at 5 uM pretreated for 10 mins followed by amyloid beta (1 to 42) stimulation and measured at 1 hr interval for 3 hrs by JC-1 dye based fluorescence assay relative to control; type: cell-based; parameters: scale not given: the % may be the effect or the level left
Sequence (P50637 whole entry, looked up): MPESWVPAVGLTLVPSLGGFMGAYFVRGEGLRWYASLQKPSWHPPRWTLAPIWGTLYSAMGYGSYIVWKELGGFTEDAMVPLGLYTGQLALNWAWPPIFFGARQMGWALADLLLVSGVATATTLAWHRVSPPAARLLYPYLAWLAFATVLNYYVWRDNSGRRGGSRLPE
Give fulfilled when the value for Activity is at least 60%. Give not fulfilled when it is less.

Sample answers from the record:
{"COMPOUND": "COc1cc(-c2nnc(SCc3c(F)cccc3Cl)o2)cc(OC)c1OC", "GROUP LABEL": "fulfilled"}
{"COMPOUND": "CCc1nnc(SCC(=O)N(CC)Cc2ccccc2)c2cc3sccc3n12", "GROUP LABEL": "not fulfilled"}
{"COMPOUND": "C=CCN1C(=O)CN=C(c2cccs2)c2c1sc1c2CCC1", "GROUP LABEL": "not fulfilled"}
{"COMPOUND": "COc1ccccc1C1NC(=S)NC(C)=C1C(=O)OCc1ccccc1 (stereo not drawn)", "GROUP LABEL": "not fulfilled"}
{"COMPOUND": "CCc1nnc(SCC(=O)N2CCN(c3ccccc3)CC2)c2cc3sccc3n12", "GROUP LABEL": "not fulfilled"}

Exam item: Determine whether measured Activity meets or exceeds 60% for C=CCN1C(=O)CN=C(c2ccccc2C)c2cc(CC)sc21
Marked response: not fulfilled

Exam item: Determine whether measured Activity meets or exceeds 60% for COC(=O)CN1C(=O)C2CCCCC2Sc2ncccc21 (stereo not drawn)
Marked response: not fulfilled

Exam item: Determine whether measured Activity meets or exceeds 60% for Cc1cc2c(cc3c(SCC(=O)N4CCN(c5ccccc5)CC4)nnc(C)n32)s1
Marked response: fulfilled

---

Documented Activity across a set of compounds
target: Translocator protein (Mus musculus); test: Inhibition of TSPO in mouse HT22 cells assessed as recovery of ATP production at 5 uM preincubated for 10 mins followed by amyloid beta (1 to 42) stimulation and measured after 7 hrs by luciferase based assay relative to control; format: cell-based; parameters: scale not given: the % may be the effect or the level left
Remember to follow the number with its unit.

{"COMPOUND": "Cc1cc2c(cc3c(SCC(=O)N4CCN(c5ccccc5)CC4)nnc(C)n32)s1", "Activity": "-9%"}

Exam item: Find the recorded Activity belonging to CCc1nnc(SCC(=O)N(CC)Cc2ccccc2)c2cc3sccc3n12 and report it.
Marked response: 1%

---

assay: Stability in dog liver microsomes assessed as parent compound remaining at 1 uM preincubated for 5 mins followed by NADPH addition measured after 30 mins by LC-MS/MS analysis; assay type: ADME, Canis lupus familiaris, microsome; details: read-out: Stability
METRIC NAME: remaining at 0.5 h, 1 µM (%)
Field format: number, assumed %, no unit text.

{"CHEMICAL STRUCTURE": "CCc1nnc(SCC(=O)N(C)c2ccccc2)c2cc3sc(C)cc3n12", "remaining at 0.5 h, 1 µM (%)": 9.8}

Next:
Exam item: Find the recorded remaining at 0.5 h, 1 µM belonging to CCc1nnc(SCC(=O)N(C)c2ccccc2)c2cc3sccc3n12 and report it.
Marked response: 5.1

---

test: Stability in mouse liver microsomes assessed as parent compound remaining at 1 uM preincubated for 5 mins followed by NADPH addition measured after 30 mins by LC-MS/MS analysis; assay type: ADME, microsome; conditions: read-out: Stability
METRIC NAME: remaining at 0.5 h, 1 µM (%)
Field format: number, assumed %, no unit text.

{"CHEMICAL STRUCTURE": "CCc1nnc(SCC(=O)N(C)c2ccccc2)c2cc3sc(C)cc3n12", "remaining at 0.5 h, 1 µM / %": 12.8}

Next:
Exam item: Find the recorded remaining at 0.5 h, 1 µM belonging to CCc1nnc(SCC(=O)N(C)c2ccccc2)c2cc3sccc3n12 and report it.
Marked response: 8.2
